# System: MDA-MB-435
# Protocol Details: NCI tumour cell line growth inhibition, 48 h
Calls of active or inactive are those of the source. Rule as the data show it: active = GI50 up to about 1.1 µM and inactive = higher.
Outcome codes: active, inactive

INSERT INTO assay_data (compound, study_target, class_name) VALUES
  ('Cn1c(N)nc2c(nc(OCc3ccccc3)n2C2OC(CO)C(O)C2O)c1=O (stereo not drawn)', 'MDA-MB-435', 'inactive'),
  ('c1ccc(-c2nnn3c2NC2=C(CCCC2)C3c2ccccc2)cc1 (stereo not drawn)', 'MDA-MB-435', 'inactive'),
  ('CC(=O)Oc1c(C)cc2c(c1C)C(C)CN2C(C)=O (stereo not drawn)', 'MDA-MB-435', 'inactive'),
  ('Cc1cc(NC(=O)NC(=O)c2ccccc2NC(=O)CN)ccc1Oc1ncc(Br)cn1', 'MDA-MB-435', 'active'),
  ('N=c1c2ccccc2nc2oc3cc([N+](=O)[O-])ccc3n12', 'MDA-MB-435', 'inactive'),
  ('O=C(O)c1cc2cc(c1)/N=C/c1ccccc1OCc1cccc(n1)COc1ccccc1/C=N/2', 'MDA-MB-435', 'inactive'),
  ('COC(=O)C1=C(OC(=O)c2ccccc2)C(C(=O)OC)[C@]2(O)[C@@H](C(=O)OC)[C@H]1C[C@@H](c1ccccc1)[C@@H]2C(=O)OC (stereo partly drawn)', 'MDA-MB-435', 'inactive'),
  ('CC(=O)OCC1OC(O[C@@H]2C[C@H]3C(C)(C)[C@H](OC(C)=O)CC[C@]3(C)[C@H]3CC[C@]4(C)C(=CC[C@H]4[C@@H](C)C[C@@H](O)[C@H](O)C(C)(C)O)[C@@]32C)C(O)C(O)C1O (stereo partly drawn)', 'MDA-MB-435', 'inactive');
